This collection of values is drawn from the Immune Epitope Database (IEDB).

# SYSTEM UNDER TEST: HLA-A*26:01
# MEASUREMENT PROTOCOL: IEDB peptide-MHC binding, purified MHC/competitive/radioactivity; filed as Kd, often an IC50 or EC50 that approximates it; bounds were set here for any values at or beyond the usual limits of such assays
# CONDITIONS: source organism: Triticum aestivum
ATTRIBUTE MEASURED: Kd

Return the recorded Kd value; entry: KSQVLQQSTY
≥ 102 µM

---

# SYSTEM UNDER TEST: HLA-A*31:01
# MEASUREMENT PROTOCOL: IEDB peptide-MHC binding, purified MHC/competitive/fluorescence; filed as Kd, often an IC50 or EC50 that approximates it; bounds were set here for any values at or beyond the usual limits of such assays
# CONDITIONS: source organism: Mycobacterium leprae
ATTRIBUTE MEASURED: Kd (nM)
Write the answer as a number in nM, unit excluded.

Return the recorded Kd value; entry: VVYIILAPK
300

---

# SYSTEM UNDER TEST: HLA-B*58:01
# MEASUREMENT PROTOCOL: IEDB peptide-MHC binding, purified MHC/direct/fluorescence; filed as Kd, often an IC50 or EC50 that approximates it; bounds were set here for any values at or beyond the usual limits of such assays
# CONDITIONS: source organism: Pseudomonas aeruginosa
ATTRIBUTE MEASURED: Kd
A complete answer gives the number and then names the unit.

Return the recorded Kd value; entry: AYGSRFHEW
4.7 µM

---

# SYSTEM UNDER TEST: HLA-B*15:01
# MEASUREMENT PROTOCOL: IEDB peptide-MHC binding, purified MHC/competitive/fluorescence; filed as Kd, often an IC50 or EC50 that approximates it; bounds were set here for any values at or beyond the usual limits of such assays
# CONDITIONS: source organism: Corynebacterium glutamicum ATCC 13032
ATTRIBUTE MEASURED: Kd (nM)
Write the answer as a number in nM, unit excluded.

Return the recorded Kd value; entry: MSSAAHLLY
46.5

---

# SYSTEM UNDER TEST: HLA-A*03:01
# MEASUREMENT PROTOCOL: IEDB peptide-MHC binding, purified MHC/direct/fluorescence; filed as Kd, often an IC50 or EC50 that approximates it; bounds were set here for any values at or beyond the usual limits of such assays
# CONDITIONS: source organism: Vibrio vulnificus YJ016
pKd: −log10 of the molar value.
ATTRIBUTE MEASURED: pKd

Return the recorded pKd value; entry: WHQARFEEL
≤ 4.70

---

# SYSTEM UNDER TEST: HLA-B*44:03
# MEASUREMENT PROTOCOL: IEDB peptide-MHC binding, purified MHC/competitive/radioactivity; filed as Kd, often an IC50 or EC50 that approximates it; bounds were set here for any values at or beyond the usual limits of such assays
# CONDITIONS: source organism: Mammarenavirus juninense
ATTRIBUTE MEASURED: Kd

# return Kd for PELELNVDAM , test system: HLA-B*44:03
≥ 70.1 µM

---

# SYSTEM UNDER TEST: HLA-B*07:02
# MEASUREMENT PROTOCOL: IEDB peptide-MHC binding, purified MHC/direct/fluorescence; filed as Kd, often an IC50 or EC50 that approximates it; bounds were set here for any values at or beyond the usual limits of such assays
# CONDITIONS: source organism: Influenza A virus (A/SW/MN/12883/00(H1N2))
ATTRIBUTE MEASURED: Kd (nM)
Write the answer as a number in nM, unit excluded.

Return the recorded Kd value; entry: FPNEVGARI
66

---

Provide the reported Kd of each item.
# SYSTEM UNDER TEST: HLA-A*02:03
# MEASUREMENT PROTOCOL: IEDB peptide-MHC binding, purified MHC/competitive/radioactivity; filed as Kd, often an IC50 or EC50 that approximates it; bounds were set here for any values at or beyond the usual limits of such assays
# CONDITIONS: source organism: SARS coronavirus Tor2
Write the answer as a number in nM, unit excluded.

Return the recorded Kd value; entry: YLVQQESSFV
17.5

Return the recorded Kd value; entry: FQFICNLLLL
62

Return the recorded Kd value; entry: GALDVSASV
2.34

Return the recorded Kd value; entry: WLVIGVAFL
0.942

Return the recorded Kd value; entry: AIAACAMLLV
31.6

Return the recorded Kd value; entry: FMRFFTLGSI
0.76

Return the recorded Kd value; entry: KLFTIAMWLL
709

Return the recorded Kd value; entry: IMQVFFGYFA
1570

Return the recorded Kd value; entry: VMYASALVLL
4.03

---

# SYSTEM UNDER TEST: HLA-B*18:01
# MEASUREMENT PROTOCOL: IEDB peptide-MHC binding, purified MHC/direct/fluorescence; filed as Kd, often an IC50 or EC50 that approximates it; bounds were set here for any values at or beyond the usual limits of such assays
# CONDITIONS: source organism: Escherichia coli O157:H7
pKd: −log10 of the molar value.
Provide the reported pKd of each item.

# return pKd for KPKLKVATL , test system: HLA-B*18:01
≤ 4.70

# return pKd for QMRVRYYGL , test system: HLA-B*18:01
≤ 4.70

---

# SYSTEM UNDER TEST: HLA-A*24:02
# MEASUREMENT PROTOCOL: IEDB peptide-MHC binding, purified MHC/competitive/fluorescence; bounds were set here for any values at or beyond the usual limits of such assays
# CONDITIONS: source organism: Vaccinia virus Copenhagen
Provide the reported IC50 of each item.
A complete answer gives the number and then names the unit.

Return the recorded IC50 value; entry: IITPIVFYR
20.3 µM

Return the recorded IC50 value; entry: ASPMLYQLL
0.233 µM

---

# SYSTEM UNDER TEST: HLA-A*69:01
# MEASUREMENT PROTOCOL: IEDB peptide-MHC binding, purified MHC/competitive/fluorescence; filed as Kd, often an IC50 or EC50 that approximates it; bounds were set here for any values at or beyond the usual limits of such assays
# CONDITIONS: source organism: Homo sapiens
pKd: −log10 of the molar value.
Provide the reported pKd of each item.

Return the recorded pKd value; entry: GTEYRLTLY
≤ 4.70

Return the recorded pKd value; entry: RTDNGGWAH
≤ 4.70

---

# SYSTEM UNDER TEST: HLA-A*24:02
# MEASUREMENT PROTOCOL: IEDB peptide-MHC binding, purified MHC/competitive/radioactivity; filed as Kd, often an IC50 or EC50 that approximates it; bounds were set here for any values at or beyond the usual limits of such assays
# CONDITIONS: source organism: Variola virus
ATTRIBUTE MEASURED: Kd

Return the recorded Kd value; entry: SQSDTVFDH
≥ 77.5 µM

---

# SYSTEM UNDER TEST: HLA-A*32:01
# MEASUREMENT PROTOCOL: IEDB peptide-MHC binding, purified MHC/competitive/radioactivity; filed as Kd, often an IC50 or EC50 that approximates it; bounds were set here for any values at or beyond the usual limits of such assays
# CONDITIONS: source organism: Dengue virus 3 Sri Lanka/1266/2000
ATTRIBUTE MEASURED: Kd (nM)
Write the answer as a number in nM, unit excluded.

Return the recorded Kd value; entry: MILPAALAF
29.5

---

# SYSTEM UNDER TEST: HLA-B*15:42
# MEASUREMENT PROTOCOL: IEDB peptide-MHC binding, purified MHC/competitive/fluorescence; filed as Kd, often an IC50 or EC50 that approximates it; bounds were set here for any values at or beyond the usual limits of such assays
# CONDITIONS: source organism: Yersinia pestis KIM10+
ATTRIBUTE MEASURED: Kd

Return the recorded Kd value; entry: SRWAISHWL
≥ 5 µM

---

# SYSTEM UNDER TEST: HLA-C*06:02
# MEASUREMENT PROTOCOL: IEDB peptide-MHC binding, purified MHC/direct/fluorescence; filed as Kd, often an IC50 or EC50 that approximates it; bounds were set here for any values at or beyond the usual limits of such assays
# CONDITIONS: source organism: Mycobacterium tuberculosis variant bovis BCG str. Pasteur 1173P2
ATTRIBUTE MEASURED: Kd

Return the recorded Kd value; entry: RARLWPRSM
0.701 µM

---

# SYSTEM UNDER TEST: HLA-B*54:01
# MEASUREMENT PROTOCOL: IEDB peptide-MHC binding, purified MHC/competitive/radioactivity; filed as Kd, often an IC50 or EC50 that approximates it; bounds were set here for any values at or beyond the usual limits of such assays
# CONDITIONS: source organism: Vaccinia virus WR
ATTRIBUTE MEASURED: Kd (µM)
Write the answer as a number in µM, unit excluded.

Return the recorded Kd value; entry: IPSTVKTNLY
10.3

Return the recorded Kd value; entry: STCYVFGLY
10.7

Return the recorded Kd value; entry: KPIMSMGDII
1.98

Return the recorded Kd value; entry: IPIGMQFDKV
0.0404

Return the recorded Kd value; entry: CTFMIITSTK
3.26

Return the recorded Kd value; entry: TPLISFFGLF
3.96

Return the recorded Kd value; entry: VPEFAKQYV
1.6

Return the recorded Kd value; entry: LPEETNIGCA
0.243

Return the recorded Kd value; entry: MPTDMLKLF
0.0286
